# System: Blood
# Procedure Details: Inhibition of IL-8 production in TNFalpha challenged human whole blood after 16 to 18 hrs
# Type: functional, tissue-based
# Condition Parameters: Homo sapiens, Blood; read-out: IC50
Outcome Measure: pIC50
Numbers only, as −log10 of the molar value.

Observe how each entry below is paired with its result.
- Record Smiles: "Cc1ccc(C(=O)Nc2ccon2)cc1-c1cc2cnn(-c3c(F)cccc3F)c2n(C)c1=O"
  pIC50: 8.82
- Record Smiles: "Cc1ccc(C(=O)NC2CC2)cc1-c1cc2cnn(-c3ccccc3Cl)c2n(C)c1=O"
  pIC50: 8.06
- Record Smiles: "Cc1ccc(C(=O)NC2CC2)cc1-c1cc2cnn(-c3cc(F)ccc3F)c2n(C)c1=O"
  pIC50: 8.43
- Record Smiles: "Cc1ccc(C(=O)NC2CC2)cc1-c1cc2cnn(-c3ccc(F)cc3F)c2n(C)c1=O"
  pIC50: 8.41

Now, please, on to the next compound.
Test item Cc1c(F)cc(C(=O)NC2CC2)cc1-c1cc2cnn(-c3c(F)cccc3F)c2n(C)c1=O ; Blood; reported pIC50 was 8.77

src = ChEMBL document CHEMBL1156338
